// values below are reported ID
- System: Mus musculus
- assayProcedure: Percent of Pu(IV) retained after 24 hours in kidneys of mice under the effect of 30 umol/kg (i.p.) of ligand administered 1 hr after iv injection of Pu(IV) citrate
- Format: functional, Kidney
State the value, then name its unit.

>>> df
                               smilesstring    targetdesc  recordedendpoint  reportedmeasurement
0  Cn1ccc(C(=O)NCCN(CCCCN(CCNC(=O)c2ccn(C)c(=O)c2O)CCNC(=O)c2ccn(C)c(=O)c2O)CCNC(=O)c2ccn(C)c(=O)c2O)c(O)c1=O  Mus musculus                ID                 1.8%

Problem: Tell me the measured ID of Cn1ccc(C(=O)NCCCCNC(=O)c2ccn(C)c(=O)c2O)c(O)c1=O , please.
Solution: 0.4%

Problem: # repeat for Cn1ccc(C(=O)NCCOCCNC(=O)c2ccn(C)c(=O)c2O)c(O)c1=O
Solution: 0.3%

Problem: # repeat for CC(=O)N(O)CCCCCNC(=O)CCC(=O)N(O)CCCCCNC(=O)CCC(=O)N(O)CCCCCNC(=O)c1ccn(C)c(=O)c1O
Solution: 3%

Problem: # repeat for Cn1ccc(C(=O)NCCCNC(=O)c2ccn(C)c(=O)c2O)c(O)c1=O
Solution: 0.5%

Problem: # repeat for Cn1ccc(C(=O)NCCCCCCNC(=O)c2ccn(C)c(=O)c2O)c(O)c1=O
Solution: 0.5%

Problem: # repeat for Cn1ccc(C(=O)NCc2cc(CNC(=O)c3ccn(C)c(=O)c3O)cc(CNC(=O)c3ccn(C)c(=O)c3O)c2)c(O)c1=O
Solution: 0.9%
